Some compounds, each annotated with its measured IC50.
Target: UniProtKB P14902
Experiment: SKOV3 kynurenine cell-based assay (IDO induced by IFN-γ)
Parameters: IDO expression was induced in the SKOV3 cells by the addition of 500 ng/ml IFN-γ; endogenous in cells; host or cells: SKOV3 (human ovarian adenocarcinoma), induced with IFN-γ
Settings: SKOV3 human ovarian adenocarcinoma cells, 500 ng/ml IFN-γ, 48 hours, 500 μM L-tryptophan; read-out: SKOV3 Kynurenine cell based assay pIC50 (converted)

Below, each entry is followed by its recorded IC50 result.
compound="CC1(C)CC(c2cc(Cl)cc3[nH]ncc23)CCN1S(C)(=O)=O (stereo not shown) [Compound 175]" result="3.24 to 31.6 µM"
compound="CS(=O)(=O)N1CCC(c2cc(-c3ccccc3)cc3[nH]ncc23)CC1 [Compound 32]" result="32.4 to 100 µM"
compound="OC1(c2cc(Cl)cc3[nH]ncc23)CCCCC1 [Compound 273, 1-(6-chloro-1H-indazol-4-yl)cyclohexanol]" result="3.24 to 31.6 µM"

IN: Please report the recorded IC50 for CNC(=O)N1CCN(c2cc(Cl)cc3[nH]ncc23)CC1 [Compound 80] .
OUT: 3.24 to 31.6 µM

----------
Biological target: IDO (Homo sapiens, UniProt P14902)
Sequence (P14902 whole entry): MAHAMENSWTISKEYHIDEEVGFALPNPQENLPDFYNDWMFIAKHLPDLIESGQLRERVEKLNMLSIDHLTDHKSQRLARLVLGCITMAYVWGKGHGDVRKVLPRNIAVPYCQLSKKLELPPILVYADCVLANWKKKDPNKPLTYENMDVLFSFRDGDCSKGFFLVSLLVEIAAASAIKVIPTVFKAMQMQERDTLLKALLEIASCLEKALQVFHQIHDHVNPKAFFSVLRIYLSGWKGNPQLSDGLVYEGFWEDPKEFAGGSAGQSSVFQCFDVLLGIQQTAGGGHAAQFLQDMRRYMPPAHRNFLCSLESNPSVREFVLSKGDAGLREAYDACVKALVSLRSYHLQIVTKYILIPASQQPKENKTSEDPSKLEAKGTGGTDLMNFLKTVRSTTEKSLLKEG
Assay: SKOV3 kynurenine cell-based assay (IDO induced by IFN-γ)
Parameters: IDO expression was induced in the SKOV3 cells by the addition of 500 ng/ml IFN-γ; endogenous in cells; host or cells: SKOV3 (human ovarian adenocarcinoma), induced with IFN-γ
Details: SKOV3 human ovarian adenocarcinoma cells, 500 ng/ml IFN-γ, 48 hours, 500 μM L-tryptophan; read-out: SKOV3 Kynurenine cell based assay pIC50 (converted)
Measured quantity: IC50

Below, each entry is followed by its recorded IC50 result.
molecule="CC(=O)N1CCC(c2cc(Cl)cc3[nH]ncc23)CC1(C)C (centres unmarked)" target_under_test="IDO (Homo sapiens, UniProt P14902)" result="< 3.16 µM"
molecule=CNc1ccc(-c2cc(Cl)cc3[nH]ncc23)cn1 target_under_test="IDO (Homo sapiens, UniProt P14902)" result="3.24 to 31.6 µM"
molecule=CS(=O)(=O)N1CCC(c2cc(N3CCOCC3)cc3[nH]ncc23)CC1 target_under_test="IDO (Homo sapiens, UniProt P14902)" result="> 100 µM"

IN: Please report the recorded IC50 for CS(=O)(=O)N1CCN(c2cc(C3CCOCC3)cc3[nH]ncc23)CC1 .
OUT: > 100 µM

IN: Please report the recorded IC50 for CS(=O)(=O)c1ccc(Oc2cc(Cl)cc3[nH]ncc23)cc1 .
OUT: 3.24 to 31.6 µM

----------
Some compounds, each annotated with its measured IC50.
Biological target: UniProt:P14902
Assay: hIDO biochemical coupled assay
Settings: 45 μM L-tryptophan, 17 minutes, room temperature; read-out: hIDO biochemical assay pIC50 (converted)

compound="O[C@H]1CCCC[C@@H]1c1cc(Cl)cc2[nH]ncc12 [Compound 418]" target_under_test=UniProt:P14902 result="> 100 µM"
compound="OC1(c2cc(Cl)cc3[nH]ncc23)CCCCC1 [Compound 273, 1-(6-chloro-1H-indazol-4-yl)cyclohexanol]" target_under_test=UniProt:P14902 result="3.24 to 31.6 µM"
compound="Clc1cc(N2CCc3cnccc3C2)c2cn[nH]c2c1 [Compound 343]" target_under_test=UniProt:P14902 result="> 100 µM"
compound="CC(=O)NC1CCN(c2cc(Cl)cc3[nH]ncc23)CC1(C)C (stereo not drawn) [Compound 335]" target_under_test=UniProt:P14902 result="3.24 to 31.6 µM"
compound="CC(=O)Nc1ccc(-c2cc(Cl)cc3[nH]ncc23)cc1 [Compound 246]" target_under_test=UniProt:P14902 result="> 100 µM"
compound="CC(=O)N1CCC(n2cc(-c3cc(Cl)cc4[nH]ncc34)cn2)CC1 [Compound 348]" target_under_test=UniProt:P14902 result="> 100 µM"
compound="CC(=O)N(C)c1ccc(-c2cc(Cl)cc3[nH]ncc23)cc1 [Compound 248]" target_under_test=UniProt:P14902 result="3.24 to 31.6 µM"
compound="CC(=O)N1CCN(c2cc(Cl)cc3c(N)noc23)CC1 [Compound 303]" target_under_test=UniProt:P14902 result="> 100 µM"

Attention now turns to another entry.
IN: Please report the recorded IC50 for OC(c1ccccc1)c1cc(Cl)cc2[nH]ncc12 (stereo not drawn) [Compound 271] .
OUT: > 100 µM
